Origin of values: patent US20250236629A1

# EC50 listing for each entry below
biological target: human orexin type 2 receptor (hOX2R) (Homo sapiens, UniProt O43614); construct: the Orexin receptor cDNA was inserted into pcDNA3.1(+) plasmid vector; expressed in transfected cells; assay: Orexin type 2 receptor agonist activity, intracellular Ca2+ (FLIPR TETRA) in CHO cells; type: cell-based; conditions: CHO cells expressing hOX2R; Ca2+ fluorescence area; 100% = 10 nM human orexin A; read-out: hOx2 pEC50 (converted)
Sequence (O43614 whole entry): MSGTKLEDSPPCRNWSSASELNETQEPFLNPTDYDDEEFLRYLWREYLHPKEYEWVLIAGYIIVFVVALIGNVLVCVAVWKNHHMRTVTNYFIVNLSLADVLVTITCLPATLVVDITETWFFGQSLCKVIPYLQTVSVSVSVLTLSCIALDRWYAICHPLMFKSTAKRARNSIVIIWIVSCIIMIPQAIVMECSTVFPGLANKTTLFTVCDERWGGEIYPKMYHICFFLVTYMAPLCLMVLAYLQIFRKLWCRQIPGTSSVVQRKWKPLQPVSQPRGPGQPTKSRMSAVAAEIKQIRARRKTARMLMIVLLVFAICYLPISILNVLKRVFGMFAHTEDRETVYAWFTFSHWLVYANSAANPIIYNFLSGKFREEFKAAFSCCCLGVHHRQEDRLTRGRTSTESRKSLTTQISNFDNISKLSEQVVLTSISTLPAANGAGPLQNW

For orientation, consider the following solved cases.
CC(C)S(=O)(=O)N[C@H]1CCCN2C(=O)CCOc3ccccc3-c3cccc(c3F)C[C@@H]12 :: 0.0398 to 1 nM
O=C1CCOc2c(F)cc(F)cc2-c2cccc(c2F)C[C@H]2[C@@H](NS(=O)(=O)C3(F)CC3)[C@@H](F)CCN12 :: 0.0398 to 1 nM
O=C1CCOc2c(F)cccc2-c2cccc(c2F)C[C@H]2[C@@H](NS(=O)(=O)C3(F)CC3)[C@@H](F)CCN12 :: 0.0398 to 1 nM

**Query** Tell me its EC50 given `CCS(=O)(=O)N[C@H]1[C@@H](F)CN2C(=O)N(C)CCOc3c(F)cccc3-c3cccc(c3)C[C@@H]12` as the entry.
**Result** 1 to 10 nM

**Query** Using known records, supply EC50 for `CCN1CCOc2ccccc2-c2cccc(c2)C[C@H]2[C@@H](NS(=O)(=O)C(F)F)C3(CC3)CN2C1=O`
**Result** 1 to 10 nM

**Query** Identify measured EC50 corresponding to `CC(C)(F)S(=O)(=O)N[C@H]1CCCN2C(=O)CCOc3ccccc3-c3cccc(c3F)C[C@@H]12`
**Result** 1 to 10 nM

**Query** Provide measured EC50 value, entry: `CN1CCOc2ccccc2-c2cccc(c2F)C[C@H]2[C@@H](NS(=O)(=O)C(F)F)C3(CC3)CN2C1=O`
**Result** 1 to 10 nM

**Query** Supply recorded EC50 for `CN1CCOc2c(F)cccc2-c2cccc(c2)C[C@H]2[C@@H](NS(=O)(=O)C(F)F)C3(CC3)CN2C1=O` here.
**Result** 1 to 10 nM

**Query** # return recorded EC50 for input `C[C@H]1CN2C(=O)N(C)CCOc3ccccc3-c3cccc(c3F)C[C@H]2[C@H]1NS(=O)(=O)CF`
**Result** 10 to 100 nM

**Query** For the molecule `CN1CCOc2c(F)cccc2-c2cccc(c2)C[C@H]2[C@@H](NS(=O)(=O)C(F)F)[C@@H](F)CN2C1=O` , report EC50.
**Result** 1 to 10 nM

**Query** Retrieve EC50 measured for `CCS(=O)(=O)N[C@@H]1[C@@H]2Cc3cccc(c3F)-c3cccc(F)c3OCCN(C)C(=O)N2CC12CC2` and print it.
**Result** 1 to 10 nM

**Query** Identify measured EC50 associated with `O=C1CCOc2ccccc2-c2cccc(c2)C[C@H]2[C@@H](NS(=O)(=O)C(F)F)CCCN12`
**Result** 1 to 10 nM

**Query** Please list EC50 recorded for the molecule `O=C1CCOc2c(F)cc(F)cc2-c2cccc(c2F)C[C@H]2[C@@H](NS(=O)(=O)CF)[C@@H](F)CCN12`
**Result** 0.0398 to 1 nM

**Query** Provide one value: measured EC50 of `CCS(=O)(=O)N[C@H]1[C@@H](F)CN2C(=O)N(C)CCOc3c(F)cccc3-c3cccc(c3F)C[C@@H]12`
**Result** 1 to 10 nM
